Target system: Cytochrome P450 3A4 (Homo sapiens)
Assay summary: Cytochrome panel assay with activity outcomes
Assay context: recombinant CYP, pro-luciferin dealkylation, luminescence, p450-cyp3a4; series mostly up to 57.1 µM
Screen size: about 16,000 compounds; about 5,100 (32%) were called active. Roughly 25% stayed inconclusive and do not appear here. Calls follow the shape of the dose curve; as a rule, active = well fitted curve in the direction sought with a large enough effect; inconclusive = small, poorly fitted or top-dose-only effect, or effect the other way; inactive = no such curve, though single readings can be large or run the other way. This is one part of the list.
Parameter call: string, one of 1.0 = active, 0.0 = inactive

Structure as smiles: COc1ccc2nc(C)cc(SCC(=O)NNC(=O)COc3ccc(C)cc3)c2c1
Class label: 1.0
--
Structure as smiles: COCCn1c(Cc2ccccc2)nnc1SCc1nc2ccccc2c(=O)[nH]1
Class label: 1.0
--
Structure as smiles: C[C@@H]1CCC[C@H](C)N1
Class label: 0.0
--
Structure as smiles: Cn1c(/C=N/NC(=O)c2ccccc2Br)nc2ccccc21
Class label: 1.0

Returns: the outcome recorded for `COC(=O)N1CCC2(CCN(C(=O)NC(C)C)CC2)CC1` in this assay.
0.0

Likewise for `CC(C)NC(=O)N1CC[C@@]2(CCCN(C(=O)c3cccn3C)C2)C1` ?
0.0
